- System: SB.mhdgc-1
- TEST_SUMMARY: viability at highest tested concentration (MAXR) relative to DMSO; higher = less cytotoxic
- EXPERIMENTAL_CONTEXT: SB.mhdgc-1 (hereditary c.1380delA CDH1 gastric cancer)
Structures can show the parent of a compound that is named as a salt.
MEASUREMENT_NAME: viability (%)

O=C(N[C@@H](c1ccccc1)[C@@H]1CCCCN1)c1cccc(C(F)(F)F)c1Cl (top concentration 46.0829 µM) ... 13
C[C@@H]\1COC(=N1)\NC2=CC3=C(C=C2)N=CN=C3NC4=CC(=C(OCC5=NC=CS5)C=C4)Cl [Varlitinib tosylate] (top concentration 46.0829 µM) ... 2.8
C[C@H](CCC(=O)O)[C@H]1CCC2C3C[C@H](O)[C@@H]4C[C@H](O)CC[C@]4(C)C3CC[C@@]21C (stereo not given in full) [Hyodeoxycholic acid (HDCA)] (top concentration 46.0829 µM) ... 105
NC(=O)Nc1cc(-c2cccc(F)c2)sc1C(=O)N[C@H]1CCCNC1 [AZD-7762] (top concentration 46.0829 µM) ... 2.9
O=C(CCCCCCC(=O)Nc1ccc([C@H]2O[C@@H](CSc3nc(-c4ccccc4)c(-c4ccccc4)o3)C[C@@H](c3ccc(CO)cc3)O2)cc1)NO [Tubacin] (top concentration 46.0829 µM) ... 23.2
CO[C@H]1/C=C/O[C@@]2(C)Oc3c(C)c(O)c4c(O)c(c(/C=N\N5CCN(C6CCCC6)CC5)c(O)c4c3C2=O)NC(=O)/C(C)=C\C=C\[C@H](C)[C@H](O)[C@@H](C)[C@@H](O)[C@@H](C)[C@H](OC(C)=O)[C@@H]1C [Rifapentine] (top concentration 46.0829 µM) ... 7.61
Cc1cnc(-c2cc(N3CCN(C(=O)CC[S+](C)(=O)[O-])CC3)ncc2Cl)c(C)c1 (top concentration 46.0829 µM) ... 58.1
C[C@@H](c1ncncc1F)[C@](O)(Cn1cncn1)c1ccc(F)cc1F [Voriconazole] (top concentration 46.0829 µM) ... 97.7
CC[C@@]1(O)C(=O)OC\C2=C1\C=C3/N(CC4=CC5=C(C=CC(=C5CN(C)C)O)N=C34)C2=O [Topotecan hydrochloride] (top concentration 46.0829 µM) ... 48.2
O[C@@H]1[C@@H](O)[C@H](O[C@@H]([C@H]1O)C(O)=O)OC2=C(O)C(=C3C(=O)\C=C(/OC3=C2)C4=CC=CC=C4)O [Baicalin] (top concentration 46.0829 µM) ... 91.1

====

- System: SB.mhdgc-1
- TEST_SUMMARY: viability at highest tested concentration (MAXR) relative to DMSO; higher = less cytotoxic
- EXPERIMENTAL_CONTEXT: SB.mhdgc-1 (hereditary c.1380delA CDH1 gastric cancer)
Form field: viability (one value per entry).
MEASUREMENT_NAME: viability (%)

Cn1ccc2cc3c(cc21)CCN3C(=O)Nc1cccnc1 (top concentration 46.0829 µM) ... 59.3
Cc1c(C(=O)c2cccc3ccccc23)c2cccc3c2n1[C@H](CN1CCOCC1)CO3 (top concentration 46.0829 µM) ... 4.11
COc1cc2ncnc(Nc3cccc(Cl)c3)c2cc1OC [AG-1478] (top concentration 46.0829 µM) ... 19.2
N=C(N)c1ccc(OCCCCCOc2ccc(C(=N)N)cc2)cc1 [Pentamidine isethionate] (top concentration 46.0829 µM) ... 53.8
CC(C)(C)C1=NC2=C([NH]1)C3=CC=C(F)C=C3C4=C2\C=C/NC4=O [Merck 5] (top concentration 46.0829 µM) ... 119
CCn1c(C(=O)N(C2CC2)C2CC2)cc2c3c(ncn3C)c(Nc3cc(C)n(C)n3)nc21 (top concentration 46.0829 µM) ... 91.1

====

- Test system: SB.mhdgc-1
- TEST_SUMMARY: area under the dose-response curve of % viability (trapezoidal, 11 doses) (% viability x log10 concentration); higher = less cytotoxic
- EXPERIMENTAL_CONTEXT: SB.mhdgc-1 (hereditary c.1380delA CDH1 gastric cancer)
Where a name gives a salt, the structure may show the parent alone.
MEASUREMENT_NAME: area under the dose-response curve

CCCC(CCC)C(=O)[O-] [Valproic acid sodium salt] (top concentration 46.0829 µM) ... 425
CC1(C)C(N(O)C(=O)Nc2ccc(Cl)cc2)N(c2ccc(Cl)cc2)C(=O)N1CC(=O)N/N=C/C=C/c1ccc([N+](=O)[O-])o1 (stereo not drawn) [Eeyarestatin I] (top concentration 46.0829 µM) ... 506
COC1=C(OCCCN2CCOCC2)C=CC\3=C1/N=C(/NC(=O)C4=CN=C(N)N=C4)N5CC/N=C35 [BAY-80-6946] (top concentration 23.0415 µM) ... 353

====

- Test system: SB.msgc-1
- TEST_SUMMARY: viability at highest tested concentration (MAXR) relative to DMSO; higher = less cytotoxic
- EXPERIMENTAL_CONTEXT: SB.msgc-1 (sporadic gastric cancer)
Structures can show the parent of a compound that is named as a salt.
MEASUREMENT_NAME: viability (%)

Cc1ccc([S+](=O)([O-])OCC(=O)Nc2ccc(C(=O)O)c(O)c2)cc1 [S31-201] (top concentration 46.0829 µM) ... 112
O=C(NCc1ccncc1)C12C[C@H]3C[C@@H](C1)CC(c1ccc(Cl)cc1)(C3)C2 (top concentration 46.0829 µM) ... 41.1
N[S+](=O)([O-])c1cc2c(cc1Cl)NC(C(Cl)Cl)N[S+]2(=O)[O-] (stereo unspecified) [Trichlormethiazide] (top concentration 46.0829 µM) ... 114
Cn1cc(CNCC2CCN(c3ncc(C(=O)NO)cn3)CC2)c2ccccc21 [Quisinostat hydrochloride] (top concentration 46.0829 µM) ... 3.03
C[C@H](NC(=O)[C@@H](O)c1cc(F)cc(F)c1)C(=O)N[C@@H]1C(=O)N(C)c2ccccc2-c2ccccc21 (top concentration 46.0829 µM) ... 97.4
CCC1=C2CN3C(=O)\C4=C(/C=C3/C2=NC5=CC=C(O)C=C15)[C@@](O)(CC)C(=O)OC4 [SN-38] (top concentration 46.0829 µM) ... 25

====

Catalogue of compounds with associated viability
- System: SB.msgc-1
- TEST_SUMMARY: viability at highest tested concentration (MAXR) relative to DMSO; higher = less cytotoxic
- EXPERIMENTAL_CONTEXT: SB.msgc-1 (sporadic gastric cancer)
Where a name gives a salt, the structure may show the parent alone.
MEASUREMENT_NAME: viability (%)

COc1cc2c(Nc3ccc(Br)cc3F)ncnc2cc1OCC1CCN(C)CC1 [Vandetanib] (top concentration 46.0829 µM) ... 34
Cc1cn2c(-c3cn[nH]c3)cnc2c(Nc2ccc(C(=O)N3CCNCC3)cc2F)n1 (top concentration 46.0829 µM) ... 40
N#C/C(=C1/Nc2ccccc2S1)c1ccnc(OCc2ccc(CN3CCOCC3)cc2)n1 (top concentration 46.0829 µM) ... 12.5
CC(C)c1noc(N2CCC(COc3ccc(-c4ccc([S+](C)(=O)[O-])cc4)nc3)CC2)n1 (top concentration 46.0829 µM) ... 72.3
O=C1[C@H](Cc2ccc(O)cc2)N2C(=O)CCN(C(=O)NCc3ccccc3)[C@H]2CN1Cc1cccc2ccccc12 [ICG-001] (top concentration 46.0829 µM) ... 54.7
NC/1=N/C(=O)N(C[C@@H](CO)OC[P](O)(O)=O)/C=C1 [Cidofovir] (top concentration 23.0415 µM) ... 123
Nc1nc(-c2nn(Cc3ccccc3F)c3ncccc23)nc(N)c1N1CCOCC1 [BAY-41-8543] (top concentration 46.0829 µM) ... 73
N#Cc1c(C2CCNCC2)cc(-c2c(O)cccc2OCC2CC2)nc1N [IKK-2 Inhibitor VIII] (top concentration 46.0829 µM) ... 24.3
NC(=O)Nc1sc(-c2ccc(F)cc2)cc1C(N)=O [TPCA-1] (top concentration 46.0829 µM) ... 48.3
CCOc1cc(N)c(Cl)cc1C(=O)NCC1CN(Cc2ccc(F)cc2)CCO1 (centres undefined) [Mosapride citrate] (top concentration 46.0829 µM) ... 89.2
CC[S+](=O)([O-])Nc1ccc2c(c1)/C(=C(/Nc1ccc(CN3CCCCC3)cc1)c1ccccc1)C(=O)N2 [Hesperadin] (top concentration 46.0829 µM) ... 36.7
COC1=C(OCCCN2CCOCC2)C=C3N=CC=C(OC4=CC=C(C=C4F)\C5=C\N=C(\NC6=CC=C(F)C=C6)N(C)C5=O)C3=C1 [AMG-51] (top concentration 46.0829 µM) ... 1.73
CC(NCCc1ccc(O)cc1)C(O)c1ccc(O)cc1 (centres undefined) [Ritodrine hydrochloride] (top concentration 46.0829 µM) ... 112
C[C@@]1(C(=O)Nc2ccc(F)nc2)CCCN1c1nc(Nc2cc(C3CC3)[nH]n2)c2cccn2n1 (top concentration 46.0829 µM) ... 53
CCCOc1ccc2[nH]c(NC(=O)OC)nc2c1 [Oxibendazole] (top concentration 46.0829 µM) ... 44.5
CC(C)(C)C1=NC2=C([NH]1)C3=CC=C(F)C=C3C4=C2\C=C/NC4=O [Merck 5] (top concentration 46.0829 µM) ... 78.4
C[C@@H]1[C@H]\2[C@H](O)[C@H]3[C@H](N(C)C)\C(=C(C(N)=O)/C(=O)[C@@]3(O)\C(=C2C(=O)C4=C(O)C=CC=C14)O)O [Doxycycline] (top concentration 46.0829 µM) ... 59.7
C1Cc2[nH]nc(-c3nn[nH]n3)c2C1 [MK-0354] (top concentration 46.0829 µM) ... 112
CC(C)OC(=O)C(C(=O)OC(C)C)=C1S\C=C/S1 [Malotilate] (top concentration 46.0829 µM) ... 66.7
COc1cc(Nc2ncc(F)c(Nc3ccc4c(n3)N(COP(=O)(O)O)C(=O)C(C)(C)O4)n2)cc(OC)c1OC [Fostamatinib disodium] (top concentration 46.0829 µM) ... 31
OC1=CC2=C(C(=O)\C=C(/O2)C3=CC=CC=C3)C(=C1O)O [Baicalein] (top concentration 46.0829 µM) ... 75.8
COc1cc2c(cc1OC)CN(CCc1ccc(NC(=O)c3cccc4c(=O)c5cccc(OC)c5[nH]c34)cc1)CC2 [Elacridar] (top concentration 46.0829 µM) ... 55.4
CC(C)(C)[C@]1(O)C[C@@H]2OC(=O)C[C@@]23C(=O)O[C@@H]2OC(=O)[C@H](O)C213 (some centres undefined) [Bilobalide] (top concentration 46.0829 µM) ... 80.6
CCN(CC)CCCCNc1ncc2cc(-c3cc(OC)cc(OC)c3)c(NC(=O)NC(C)(C)C)nc2n1 (top concentration 46.0829 µM) ... 72.5
